Tested on: Klebsiella pneumoniae
Test: Antibacterial activity against beta-lactamase-positive ESBL-negative Klebsiella pneumoniae E477 assessed as mutant prevention concentration after overnight incubation
Assay type: functional
Readings of MPC for the listed compounds
Lab book: enter the figure in µg/mL, no units written.

These recorded examples may help you get a feel for the data.
[[record]]
compound = "C[C@@H](O)[C@H]1C(=O)N2C(C(=O)O)=C(S[C@@H]3CN[C@H](C(=O)Nc4cccc(C(=O)O)c4)C3)[C@H](C)[C@H]12"
attribute_measured = "MPC"
observed_measurement = 32

[[record]]
compound = "C[C@@H](O)[C@H]1C(=O)N2C(C(=O)O)=C(SCCNC=N)C[C@H]12 [IMIPENEM ANHYDROUS]"
attribute_measured = "MPC"
observed_measurement = 32


Lab note: C[C@@H](O)[C@H]1C(=O)N2C(C(=O)O)=C(S[C@@H]3CN[C@H](C(=O)N(C)C)C3)[C@H](C)[C@H]12 [MEROPENEM] gave MPC of 8

###

System: Klebsiella pneumoniae
Assay: Antibacterial activity against beta-lactamase-negative Klebsiella pneumoniae E362 assessed as mutant prevention concentration after overnight incubation
Format: functional
In this section, each of the compounds is paired with its reported MPC.

Worked set:
[[record]]
compound = "C[C@@H](O)[C@H]1C(=O)N2C(C(=O)O)=C(S[C@@H]3CN[C@H](C(=O)Nc4cccc(C(=O)O)c4)C3)[C@H](C)[C@H]12"
attribute_measured = "MPC"
observed_measurement = "0.06 µg/mL"

[[record]]
compound = "C[C@@H](O)[C@H]1C(=O)N2C(C(=O)O)=C(SCCNC=N)C[C@H]12 [IMIPENEM ANHYDROUS]"
attribute_measured = "MPC"
observed_measurement = "1 µg/mL"

[[record]]
compound = "C[C@@H](O)[C@H]1C(=O)N2C(C(=O)O)=C(S[C@@H]3CN[C@H](C(=O)N(C)C)C3)[C@H](C)[C@H]12 [MEROPENEM]"
attribute_measured = "MPC"
observed_measurement = "0.125 µg/mL"


Please examine the following record next.
Reported MPC of C[C@@H](O)[C@H]1C(=O)N2C(C(=O)O)=C(S[C@@H]3CN[C@H](CNS(N)(=O)=O)C3)[C@H](C)[C@H]12 [DORIPENEM] : 0.125 µg/mL

###

Recorded MPC values for a group of compounds are listed next.
Test system: Klebsiella pneumoniae
Test: Antibacterial activity against beta-lactamase-positive ESBL-negative Klebsiella pneumoniae E509 assessed as mutant prevention concentration after overnight incubation
Assay type: functional

[[record]]
compound = "C[C@@H](O)[C@H]1C(=O)N2C(C(=O)O)=C(S[C@@H]3CN[C@H](C(=O)Nc4cccc(C(=O)O)c4)C3)[C@H](C)[C@H]12"
attribute_measured = "MPC"
observed_measurement = "64 µg/mL"

[[record]]
compound = "C[C@@H](O)[C@H]1C(=O)N2C(C(=O)O)=C(S[C@@H]3CN[C@H](C(=O)N(C)C)C3)[C@H](C)[C@H]12 [MEROPENEM]"
attribute_measured = "MPC"
observed_measurement = ">64 µg/mL"


Klebsiella pneumoniae data for C[C@@H](O)[C@H]1C(=O)N2C(C(=O)O)=C(SCCNC=N)C[C@H]12 [IMIPENEM ANHYDROUS] ; its MPC: >32 µg/mL

C[C@@H](O)[C@H]1C(=O)N2C(C(=O)O)=C(S[C@@H]3CN[C@H](CNS(N)(=O)=O)C3)[C@H](C)[C@H]12 [DORIPENEM] on Klebsiella pneumoniae gives MPC = >64 µg/mL

###

Test system: Klebsiella pneumoniae
Assay: Antibacterial activity against beta-lactamase-positive ESBL-negative Klebsiella pneumoniae E473 assessed as mutant prevention concentration after overnight incubation
Format: functional
MPC by entry:
Quick note: give the figure in µg/mL, leave out the unit.

[[record]]
compound = "C[C@@H](O)[C@H]1C(=O)N2C(C(=O)O)=C(S[C@@H]3CN[C@H](C(=O)N(C)C)C3)[C@H](C)[C@H]12"
attribute_measured = "MPC"
observed_measurement = 16


Measured MPC (Klebsiella pneumoniae), entry "C[C@@H](O)[C@H]1C(=O)N2C(C(=O)O)=C(S[C@@H]3CN[C@H](CNS(N)(=O)=O)C3)[C@H](C)[C@H]12" : 8

Entry C[C@@H](O)[C@H]1C(=O)N2C(C(=O)O)=C(SCCNC=N)C[C@H]12 [IMIPENEM ANHYDROUS] under Klebsiella pneumoniae had MPC of 16

Summary: "C[C@@H](O)[C@H]1C(=O)N2C(C(=O)O)=C(S[C@@H]3CN[C@H](C(=O)Nc4cccc(C(=O)O)c4)C3)[C@H](C)[C@H]12" , Klebsiella pneumoniae, MPC = 32

###

System: Klebsiella pneumoniae
Test: Antibacterial activity against beta-lactamase-negative Klebsiella pneumoniae E419 assessed as mutant prevention concentration after overnight incubation
Type: functional
The entries below are paired with their reported MPC.
Number first, unit second.

[[record]]
compound = "C[C@@H](O)[C@H]1C(=O)N2C(C(=O)O)=C(S[C@@H]3CN[C@H](C(=O)N(C)C)C3)[C@H](C)[C@H]12 [MEROPENEM]"
observed_measurement = "0.125 µg/mL"


Memo: "C[C@@H](O)[C@H]1C(=O)N2C(C(=O)O)=C(S[C@@H]3CN[C@H](C(=O)Nc4cccc(C(=O)O)c4)C3)[C@H](C)[C@H]12" , reported MPC: 0.03 µg/mL

Form: compound = C[C@@H](O)[C@H]1C(=O)N2C(C(=O)O)=C(S[C@@H]3CN[C@H](CNS(N)(=O)=O)C3)[C@H](C)[C@H]12 [DORIPENEM] ; MPC = 0.25 µg/mL

In plain terms, C[C@@H](O)[C@H]1C(=O)N2C(C(=O)O)=C(SCCNC=N)C[C@H]12 [IMIPENEM ANHYDROUS] has a documented MPC of 1 µg/mL

###

Test system: Escherichia coli
Experiment: Antibacterial activity against beta-lactamase-negative Escherichia coli E350 assessed as mutant prevention concentration after overnight incubation
Format: functional
Attribute Measured: MPC

[[record]]
molecule = "C[C@@H](O)[C@H]1C(=O)N2C(C(=O)O)=C(S[C@@H]3CN[C@H](CNS(N)(=O)=O)C3)[C@H](C)[C@H]12 [DORIPENEM]"
observed_measurement = "0.125 µg/mL"


// MPC value for C[C@@H](O)[C@H]1C(=O)N2C(C(=O)O)=C(SCCNC=N)C[C@H]12 [IMIPENEM ANHYDROUS] : 2 µg/mL

Lookup result for C[C@@H](O)[C@H]1C(=O)N2C(C(=O)O)=C(S[C@@H]3CN[C@H](C(=O)N(C)C)C3)[C@H](C)[C@H]12 [MEROPENEM] ; measured MPC: 0.06 µg/mL

Record "C[C@@H](O)[C@H]1C(=O)N2C(C(=O)O)=C(S[C@@H]3CN[C@H](C(=O)Nc4cccc(C(=O)O)c4)C3)[C@H](C)[C@H]12" . Reported MPC: 0.03 µg/mL

###

Test system: Klebsiella pneumoniae
Assay: Antibacterial activity against beta-lactamase-positive ESBL-negative Klebsiella pneumoniae E480 assessed as mutant prevention concentration after overnight incubation
Format: functional
Attribute Measured: MPC (µg/mL)
Respond with the bare value in µg/mL.

[[record]]
record_smiles = "C[C@@H](O)[C@H]1C(=O)N2C(C(=O)O)=C(S[C@@H]3CN[C@H](C(=O)Nc4cccc(C(=O)O)c4)C3)[C@H](C)[C@H]12"
observed_measurement = 32

[[record]]
record_smiles = "C[C@@H](O)[C@H]1C(=O)N2C(C(=O)O)=C(S[C@@H]3CN[C@H](CNS(N)(=O)=O)C3)[C@H](C)[C@H]12"
observed_measurement = 8


Just so you know, measured MPC for "C[C@@H](O)[C@H]1C(=O)N2C(C(=O)O)=C(S[C@@H]3CN[C@H](C(=O)N(C)C)C3)[C@H](C)[C@H]12" came out at 16

###

System: Escherichia coli
Test: Antibacterial activity against beta-lactamase-positive ESBL-positive Escherichia coli E452 assessed as mutant prevention concentration after overnight incubation
Type: functional
The following compounds are shown together with reported MPC values.
Kindly answer with a numeric value in µg/mL, unit omitted.

[[record]]
compound = "C[C@@H](O)[C@H]1C(=O)N2C(C(=O)O)=C(SCCNC=N)C[C@H]12 [IMIPENEM ANHYDROUS]"
observed_measurement = 0.5


In plain terms, "C[C@@H](O)[C@H]1C(=O)N2C(C(=O)O)=C(S[C@@H]3CN[C@H](CNS(N)(=O)=O)C3)[C@H](C)[C@H]12" has a documented MPC of 0.125

Briefly, MPC measured for "C[C@@H](O)[C@H]1C(=O)N2C(C(=O)O)=C(S[C@@H]3CN[C@H](C(=O)Nc4cccc(C(=O)O)c4)C3)[C@H](C)[C@H]12" : 0.25

The compound listed as "C[C@@H](O)[C@H]1C(=O)N2C(C(=O)O)=C(S[C@@H]3CN[C@H](C(=O)N(C)C)C3)[C@H](C)[C@H]12" has a reported MPC of 0.06
